molecular target: Cry2 PHR (L348F)-p65AD-NLSx2 fusion construct as released from the TetR (I194T, 1-206)-CIB1 (-NLS)-T2A-Cry2 PHR (L348F)-p65AD-NLSx2 fusion construct; assay: cell-based or functional assay
Sequence (Q96524 other isoform, or with tags, fused parts or gaps L348F I194T L348F L348F I194T L348F): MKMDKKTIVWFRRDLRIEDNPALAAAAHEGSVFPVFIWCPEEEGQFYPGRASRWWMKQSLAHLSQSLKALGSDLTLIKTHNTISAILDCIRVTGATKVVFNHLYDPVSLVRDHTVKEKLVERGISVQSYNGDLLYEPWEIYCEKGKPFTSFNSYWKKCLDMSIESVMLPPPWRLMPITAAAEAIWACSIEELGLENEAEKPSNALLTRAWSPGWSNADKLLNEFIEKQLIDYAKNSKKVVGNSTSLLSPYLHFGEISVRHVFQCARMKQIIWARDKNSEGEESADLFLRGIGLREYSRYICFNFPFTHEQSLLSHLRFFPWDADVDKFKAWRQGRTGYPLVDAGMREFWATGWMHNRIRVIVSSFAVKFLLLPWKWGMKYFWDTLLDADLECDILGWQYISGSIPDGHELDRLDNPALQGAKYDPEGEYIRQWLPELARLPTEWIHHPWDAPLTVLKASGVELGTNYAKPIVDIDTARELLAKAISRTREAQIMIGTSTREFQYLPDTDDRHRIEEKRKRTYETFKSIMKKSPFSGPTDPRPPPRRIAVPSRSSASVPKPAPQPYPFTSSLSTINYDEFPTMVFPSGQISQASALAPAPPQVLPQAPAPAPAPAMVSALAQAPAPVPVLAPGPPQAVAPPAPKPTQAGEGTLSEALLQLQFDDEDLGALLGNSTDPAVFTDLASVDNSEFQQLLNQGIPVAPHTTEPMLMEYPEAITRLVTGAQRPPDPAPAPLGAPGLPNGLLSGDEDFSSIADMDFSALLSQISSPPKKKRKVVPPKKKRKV
Reported values of Average of the Light/Dark ratio, Dox 0 ng/mL for individual entries
Answer with a number only.

Looking up rTetR (I194T, M2 mutation, 1-206)-CIB1 (-NLS) from the T2A construct (protein, part only; not given: Leftover T2A residues, part only) chain, part: MARLDKSKVINGALELLNGVGIEGLTTRKLAQKLGVEQPTLYWHVKNKRALLDALPIEMLDRHHTHFCPLEGESWQDFLRNNAKSFRCALLSHRDGAKVHLGTRPTEKQYETLENQLAFLCQQGFSLENALYALSAVGHFTLGCVLEEQEHQVAKEERETPTTDSMPPLLRQAIELFDRQGAEPAFLFGLELITCGLEKQLKCESGSPKKKHMEFNGAIGGDLLLNFPDMSVLERQRAHLKYLNPTFDSPLAGFFADSSMITGGEMDSYLSTAGLNLPMMYGETTVEGDSRLSISPETTLGTGNFKAAKFDTETKDCNEAAKKMTMNRDDLVEEGEEEKSKITEQNNGSTKSIKKMKHKAKKEENNFSNDSSKVTKELEKTDYI , I see its Average of the Light/Dark ratio, Dox 0 ng/mL listed as 1.4

Looking up TetR (I194T, 1-206)-CIB1 (-NLS) fusion construct as released from the TetR (I194T, 1-206)-CIB1 (-NLS)-T2A-Cry2 PHR (L348F)-p65AD-NLSx2 fusion construct (protein, part only, residual T2A residues at C-terminus) MARLDKSKVINSALELLNEVGIEGLTTRKLAQKLGVEQPTLYWHVKNKRALLDALAIEMLDRHHTHFCPLEGESWQDFLRNNAKSFRCALLSHRDGAKVHLGTRPTEKQYETLENQLAFLCQQGFSLENALYALSAVGHFTLGCVLEDQEHQVAKEERETPTTDSMPPLLRQAIELFDHQGAEPAFLFGLELITCGLEKQLKCESGSPKKKHMEFNGAIGGDLLLNFPDMSVLERQRAHLKYLNPTFDSPLAGFFADSSMITGGEMDSYLSTAGLNLPMMYGETTVEGDSRLSISPETTLGTGNFKAAKFDTETKDCNEAAKKMTMNRDDLVEEGEEEKSKITEQNNGSTKSIKKMKHKAKKEENNFSNDSSKVTKELEKTDYI , I see its Average of the Light/Dark ratio, Dox 0 ng/mL listed as 19

Looking up rTetR (I194T, V10 mutation, 1-206)-CIB1 (-NLS) from the T2A construct (protein, part only; not given: Leftover T2A residues, part only) chain, part: MARLDKSKVINSALELLNGVGIEGLTTRKLAQKLGVEQPTLYWHVKNKRALLDALPIEMLDRHHTHSCPLEGESWQDFLRNNAKSYRCALLSHRDGAKVHLGTRPTEKQYETLENQLAFLCQQGFSLENALYALSAVGHFTLGCVLEEQEHQVAKEERETPTTDSMPPLLKQAIELFDRQGAEPAFLFGLELITCGLEKQLKCESGSPKKKHMEFNGAIGGDLLLNFPDMSVLERQRAHLKYLNPTFDSPLAGFFADSSMITGGEMDSYLSTAGLNLPMMYGETTVEGDSRLSISPETTLGTGNFKAAKFDTETKDCNEAAKKMTMNRDDLVEEGEEEKSKITEQNNGSTKSIKKMKHKAKKEENNFSNDSSKVTKELEKTDYI , I see its Average of the Light/Dark ratio, Dox 0 ng/mL listed as 1.3

Reference for the values: patent US20210340548A1
